Molecular target: HLA-A3.2 (A*0301) (Homo sapiens)
Assay: biochemical
Format: binding
No end group written: not given here.
Would you kindly list IC50 for each of these sequences?
Numbers only here, please. The scale is nM.

Input: # get_value(readout= IC50, system= HLA-A3.2 (A*0301) (Homo sapiens)) for KLFGYSWYK [Peptide 76.0146]
Output: 11

Input: # get_value(readout= IC50, system= HLA-A3.2 (A*0301) (Homo sapiens)) for VQVYFDGNK [Peptide 88.0399]
Output: 2050

Input: # get_value(readout= IC50, system= HLA-A3.2 (A*0301) (Homo sapiens)) for EVHIPLGDAR [Peptide 9017.0217]
Output: 9390

Input: # get_value(readout= IC50, system= HLA-A3.2 (A*0301) (Homo sapiens)) for QQMNMCQWIK [Peptide 88.0186]
Output: 346

Input: # get_value(readout= IC50, system= HLA-A3.2 (A*0301) (Homo sapiens)) for TVWNPPTTAK [Peptide 1556.03]
Output: 25

Input: # get_value(readout= IC50, system= HLA-A3.2 (A*0301) (Homo sapiens)) for RLIERIRER [Peptide 9017.0124]
Output: 57

Input: # get_value(readout= IC50, system= HLA-A3.2 (A*0301) (Homo sapiens)) for GVMCRHYKR [Peptide 88.0388]
Output: 2890

Input: # get_value(readout= IC50, system= HLA-A3.2 (A*0301) (Homo sapiens)) for VTVYYGVPIWK [Peptide 1525.02]
Output: 18

Input: # get_value(readout= IC50, system= HLA-A3.2 (A*0301) (Homo sapiens)) for ATTPIIHLK [Peptide 1589.18]
Output: 9.7

Input: # get_value(readout= IC50, system= HLA-A3.2 (A*0301) (Homo sapiens)) for LVYRDDFPY [Peptide 1581.04]
Output: 7380

Input: # get_value(readout= IC50, system= HLA-A3.2 (A*0301) (Homo sapiens)) for TVRHKKLMFK [Peptide 1556.79]
Output: 440

Input: # get_value(readout= IC50, system= HLA-A3.2 (A*0301) (Homo sapiens)) for LFYSKVRKYK [Peptide 88.0098]
Output: 680

Input: # get_value(readout= IC50, system= HLA-A3.2 (A*0301) (Homo sapiens)) for YVMAGVGSPK [Peptide 9012.0253]
Output: 25

Input: # get_value(readout= IC50, system= HLA-A3.2 (A*0301) (Homo sapiens)) for LTYISTSQR [Peptide 1589.19]
Output: 14

###

Target: DRB1*1201 (Homo sapiens, UniProt P01903+P01911, A100R/A169T/D57E/D86V/F55L/H45Y/K41T/L162R/M171V/P40S/Q125H/Q178H/Q39Y/Q99D/R42G/S66L/T262R/V114A/V67L/W38E/Y59H/Y61H/Y89S)
Assay: biochemical
Type: binding
No end group written: not given here.
hey, just use 1 if measured IC50 is less than 2000 nM, otherwise -1

Input: Check if IC50 falls below 2000 nM for EDLRTLQQLFLSTLS [Peptide 1543.21] .
Output: 1

Input: Check if IC50 falls below 2000 nM for PEEFLRPRSLQCVSL [Peptide 68.0015] .
Output: -1

Input: Check if IC50 falls below 2000 nM for RLNLDNDEDKENNGD [Peptide 90.0144] .
Output: -1

Input: Check if IC50 falls below 2000 nM for IHFIQGAVISFVNST [Peptide 89.0037] .
Output: 1

Input: Check if IC50 falls below 2000 nM for KERHVNANKRFHNIM [Peptide 1543.59] .
Output: 1

Input: Check if IC50 falls below 2000 nM for EIYIIEEDTCTMVTG [Peptide 90.0203] .
Output: -1

Input: Check if IC50 falls below 2000 nM for WKLIRMECAIMYTAR [Peptide 90.0245] .
Output: 1

Input: Check if IC50 falls below 2000 nM for WKAVRHENVLYYKAR [Peptide 90.0230] .
Output: 1

Input: Check if IC50 falls below 2000 nM for LRMMNDQLMFLERAF [Peptide 68.0131] .
Output: 1

Input: Check if IC50 falls below 2000 nM for ETCMVIEPPKLRSQT [Peptide 90.0083] .
Output: 1

Input: Check if IC50 falls below 2000 nM for CIHSTATDLRTLQQM [Peptide 1543.45] .
Output: -1

Input: Check if IC50 falls below 2000 nM for DWCVAAFGVTGTVAE [Peptide 89.0042] .
Output: -1

Input: Check if IC50 falls below 2000 nM for TVTFVTEQQQQMFLG [Peptide 90.0210] .
Output: -1

Input: Check if IC50 falls below 2000 nM for PEWIQRLTIIQHGID [Peptide 89.0031] .
Output: 1

Input: Check if IC50 falls below 2000 nM for LKLFLKGVPKKNCIL [Peptide 89.0054] .
Output: 1

Input: Check if IC50 falls below 2000 nM for YFKYFKEDAAKYSKT [Peptide 90.0205] .
Output: -1

Input: Check if IC50 falls below 2000 nM for SEVYDFVFADLRIVY [Peptide 1543.48] .
Output: -1

Input: Check if IC50 falls below 2000 nM for LNTVKIPNTVSVSTG [Peptide 89.0178] .
Output: 1

Input: Check if IC50 falls below 2000 nM for LLEFIDDSMENSIQA [Peptide 90.0077] .
Output: -1

Input: Check if IC50 falls below 2000 nM for WKLIRMECALLYTAK [Peptide 90.0199] .
Output: 1

Input: Check if IC50 falls below 2000 nM for KNRLTVAKLMSNLLS [Peptide 89.0064] .
Output: 1

Input: Check if IC50 falls below 2000 nM for VILLGRHSLFHPEDT [Peptide 68.0068] .
Output: 1

Input: Check if IC50 falls below 2000 nM for YRHYQYSLYGKTLEE [Peptide 1543.58] .
Output: -1

Input: Check if IC50 falls below 2000 nM for GVYYIKDGDTTYYVQ [Peptide 90.0216] .
Output: -1

Input: Check if IC50 falls below 2000 nM for HKAIELQMALKGLAQ [Peptide 90.0004] .
Output: 1

Input: Check if IC50 falls below 2000 nM for VDFIVNDNDYLTQAE [Peptide 90.0031] .
Output: -1

###

Target: A*3002 (Homo sapiens, UniProt P04439, D101N/D140H/D185E/E176R/F33S/G80R/H175R/K168Q/Q94H/R138E/R41S/V100E)
Experiment: biochemical
Type: binding
No end group written: not given here.
measurementType: IC50 (nM)
Numbers only here, please. The scale is nM.

Input: Any idea what its IC50 is? The sequence is LFTDLRIVY [Peptide 78.0378]
Output: 89

Input: Any idea what its IC50 is? The sequence is ATLERTEVY [Peptide 78.0252]
Output: 26

Input: Any idea what its IC50 is? The sequence is VQEKILDLY [Peptide 86.0149]
Output: 193

Input: Any idea what its IC50 is? The sequence is GNEKTYFKY [Peptide 86.0160]
Output: 739

Input: Any idea what its IC50 is? The sequence is LSDALEIPY [Peptide 1549.41]
Output: 8690

Input: Any idea what its IC50 is? The sequence is ELDPVDLLCY [Peptide 78.0017]
Output: 12700

Input: Any idea what its IC50 is? The sequence is QAEPDRAHY [Peptide 78.0244]
Output: 16

Input: Any idea what its IC50 is? The sequence is WTSTDNKNY [Peptide 1580.31]
Output: 7310

Input: Any idea what its IC50 is? The sequence is HTASNPPAQY [Peptide 9012.0142]
Output: 1.8

Input: Any idea what its IC50 is? The sequence is TTSPSYTY [Peptide 9012.0100]
Output: 323

Input: Any idea what its IC50 is? The sequence is AFTDLTIVY [Peptide 78.0348]
Output: 71

Input: Any idea what its IC50 is? The sequence is LQDKILDHY [Peptide 1580.27]
Output: 926

Input: Any idea what its IC50 is? The sequence is KTDILTVTY [Peptide 1593.11]
Output: 922

Input: Any idea what its IC50 is? The sequence is LFYSKVRKY [Peptide 78.0384]
Output: 35

###

Would you kindly list pIC50 for each of these sequences?
Target: A*0203 (Homo sapiens, UniProt P04439, A173T/D140Y/D185E/D98H/E277Q/G131W/G231S/I119V/I121R/I166T/I218V/L180W/L300P/L318F/N151K/N90K/P208A/P217A/Q86G/Q94H/R138H/R169H/T345S)
Assay: biochemical
Type: binding
No end group written: not given here.
// field semantics: pIC50 = negative decimal log of concentration (mol/L)

Input: Any idea what its pIC50 is? The sequence is FLSHVKIPV [Peptide 1578.55]
Output: 8.01

Input: Any idea what its pIC50 is? The sequence is ALAFTCEPET [Peptide 9013.0156]
Output: 6.55

Input: Any idea what its pIC50 is? The sequence is QLSNGNRTV [Peptide 9013.0095]
Output: 7.27

Input: Any idea what its pIC50 is? The sequence is QLHTQELFI [Peptide 9013.0079]
Output: 6.58

Input: Any idea what its pIC50 is? The sequence is YLIGTQQAT [Peptide 9013.0025]
Output: 7.74

Input: Any idea what its pIC50 is? The sequence is LTNTGLYNL [Peptide 1481.17]
Output: 5.30

Input: Any idea what its pIC50 is? The sequence is RLTVTTITVYA [Peptide 9013.0305]
Output: 6.69
